Where these numbers come from: ChEMBL document CHEMBL3860103

The following compounds are listed with their measured log10(HC50 at 1 h) values.
Assay overview: Induction of hemolysis in human RBC incubated for 1 hr
Format: cell-based, Erythrocyte
Experimental parameters: red blood cells
Measured metric: log10(HC50 at 1 h) (log10 of the value in µg/mL)

• CCCCCCCCCCNC(=O)C[N+](C)(C)CCCCCCCCCC[N+](C)(C)CC(=O)NCCCCCCCCCC.[Br-].[Br-] = 1.74
• CCCCCCCCCCNC(=O)C[N+](C)(C)CC[N+](C)(C)CC(=O)NCCCCCCCCCC.[Br-].[Br-] = 1.81
• CCCCCCCCCCNC(=O)C[N+](C)(C)CCCCCCCC[N+](C)(C)CC(=O)NCCCCCCCCCC.[Br-].[Br-] = 1.74
• CCCCCCCCNC(=O)C[N+](C)(C)CCCCCCCCCC[N+](C)(C)CC(=O)NCCCCCCCC.[Br-].[Br-] = 2.00
• CCCCCCCCCCNC(=O)C[N+](C)(C)CCCCCC[N+](C)(C)CC(=O)NCCCCCCCCCC.[Br-].[Br-] = 1.76
• CCCCCCCCNC(=O)C[N+](C)(C)CCCCCC[N+](C)(C)CC(=O)NCCCCCCCC.[Br-].[Br-] = 2.48
• CCCCCCCCCCNC(=O)C[N+](C)(C)CCCC[N+](C)(C)CC(=O)NCCCCCCCCCC.[Br-].[Br-] = 1.78
• CCCCCCNC(=O)C[N+](C)(C)CCCCCCCCCCCC[N+](C)(C)CC(=O)NCCCCCC.[Br-].[Br-] = 2.91

----------
System: Escherichia coli
Assay overview: Antibacterial activity against Escherichia coli incubated for 24 hrs
Type: functional
Measured metric: MIC (µg/mL)

* CCCCCCNC(=O)C[N+](C)(C)CC[N+](C)(C)CC(=O)NCCCCCC.[Br-].[Br-] | 250
* CCCCCCCCCCNC(=O)C[N+](C)(C)CCCC[N+](C)(C)CC(=O)NCCCCCCCCCC.[Br-].[Br-] | 2
* CCCCCCNC(=O)C[N+](C)(C)CCCCCCCCCCCC[N+](C)(C)CC(=O)NCCCCCC.[Br-].[Br-] | 2
* CCCCCCCCNC(=O)C[N+](C)(C)CCCCCC[N+](C)(C)CC(=O)NCCCCCCCC.[Br-].[Br-] | 6
* CCCCCCCCNC(=O)C[N+](C)(C)CCCCCCCC[N+](C)(C)CC(=O)NCCCCCCCC.[Br-].[Br-] | 2
* CCCCCCNC(=O)C[N+](C)(C)CCCC[N+](C)(C)CC(=O)NCCCCCC.[Br-].[Br-] | 125
* CCCCCCCCCCNC(=O)C[N+](C)(C)CCCCCCCC[N+](C)(C)CC(=O)NCCCCCCCCCC.[Br-].[Br-] | 4
* CCCCCCCCCCNC(=O)C[N+](C)(C)CCCCCC[N+](C)(C)CC(=O)NCCCCCCCCCC.[Br-].[Br-] | 2

----------
System: Staphylococcus aureus
Assay overview: Induction of biofilm disruption in Staphylococcus aureus after 24 hrs by confocal laser-scanning microscopy
Assay type: functional
The source made the active and inactive calls. No cut-off for these calls is given here.
Measured metric: MBEC

• CCCCCCCCCCCCCC[N+](C)(C)Cc1ccccc1 = Active
• CCCCCCNC(=O)C[N+](C)(C)CCCCCCCCCCCC[N+](C)(C)CC(=O)NCCCCCC.[Br-].[Br-] = 31.2 to 62.5 µg/mL
• CCCCCCCCCCNC(=O)C[N+](C)(C)CCCC[N+](C)(C)CC(=O)NCCCCCCCCCC.[Br-].[Br-] = 31.2 to 62.5 µg/mL
• CCCCCCCCCC[N+](C)(C)CCCCCCCCCC = Active

----------
# maps each entry to its MIC
Tested on: Escherichia coli
Assay overview: Antibacterial activity against Escherichia coli incubated for 24 hrs
Assay type: functional
Measured metric: MIC (µg/mL)

• CCCCCCCCNC(=O)C[N+](C)(C)CC[N+](C)(C)CC(=O)NCCCCCCCC.[Br-].[Br-] = 8
• CCCCCCCCCCNC(=O)C[N+](C)(C)CCCCCCCCCCCC[N+](C)(C)CC(=O)NCCCCCCCCCC.[Br-].[Br-] = 500
• CCCCCCNC(=O)C[N+](C)(C)CCCCCCCC[N+](C)(C)CC(=O)NCCCCCC.[Br-].[Br-] = 31
• CCCCCCCCCCNC(=O)C[N+](C)(C)CCCCCCCCCC[N+](C)(C)CC(=O)NCCCCCCCCCC.[Br-].[Br-] = 8
• CCCCCCCCCCNC(=O)C[N+](C)(C)CC[N+](C)(C)CC(=O)NCCCCCCCCCC.[Br-].[Br-] = 4
• CCCCCCNC(=O)C[N+](C)(C)CCCCCCCCCC[N+](C)(C)CC(=O)NCCCCCC.[Br-].[Br-] = 6
• CCCCCCCCNC(=O)C[N+](C)(C)CCCCCCCCCCCC[N+](C)(C)CC(=O)NCCCCCCCC.[Br-].[Br-] = 2
• CCCCCCCCNC(=O)C[N+](C)(C)CCCCCCCCCC[N+](C)(C)CC(=O)NCCCCCCCC.[Br-].[Br-] = 1
• CCCCCCNC(=O)C[N+](C)(C)CCCCCC[N+](C)(C)CC(=O)NCCCCCC.[Br-].[Br-] = 125
• CCCCCCCCNC(=O)C[N+](C)(C)CCCC[N+](C)(C)CC(=O)NCCCCCCCC.[Br-].[Br-] = 8

----------
Assay overview: Toxicity in topically dosed mouse by OECD425 guidelines based method
Type: organism-based
Experimental parameters: in vivo, topical or ocular
Measured metric: LD50

* CCCCCCNC(=O)C[N+](C)(C)CCCCCCCCCCCC[N+](C)(C)CC(=O)NCCCCCC.[Br-].[Br-] | > 200 mg/kg

----------
Assay overview: Induction of hemolysis in human RBC incubated for 1 hr
Type: cell-based, Erythrocyte
Experimental parameters: red blood cells
As shown below, each of these compounds has a reported HC50 at 1 h value.
Measured metric: HC50 at 1 h (µg/mL)

- CCCCCCCCNC(=O)C[N+](C)(C)CCCC[N+](C)(C)CC(=O)NCCCCCCCC.[Br-].[Br-]: 310
- CCCCCCCCNC(=O)C[N+](C)(C)CCCCCCCC[N+](C)(C)CC(=O)NCCCCCCCC.[Br-].[Br-]: 212

----------
The compounds listed here are annotated with their HC50 at 1 h.
Assay overview: Induction of hemolysis in human RBC incubated for 1 hr
Type: cell-based, Erythrocyte
Experimental parameters: red blood cells
Measured metric: HC50 at 1 h

• CCCCCCNC(=O)C[N+](C)(C)CCCC[N+](C)(C)CC(=O)NCCCCCC.[Br-].[Br-] = > 1000 µg/mL
• CCCCCCCCNC(=O)C[N+](C)(C)CC[N+](C)(C)CC(=O)NCCCCCCCC.[Br-].[Br-] = 350 µg/mL
• CCCCCCCCNC(=O)C[N+](C)(C)CCCCCCCCCCCC[N+](C)(C)CC(=O)NCCCCCCCC.[Br-].[Br-] = 65 µg/mL
• CCCCCCNC(=O)C[N+](C)(C)CCCCCCCC[N+](C)(C)CC(=O)NCCCCCC.[Br-].[Br-] = > 1000 µg/mL
• CCCCCCNC(=O)C[N+](C)(C)CCCCCC[N+](C)(C)CC(=O)NCCCCCC.[Br-].[Br-] = > 1000 µg/mL
• CCCCCCCCCCNC(=O)C[N+](C)(C)CCCCCCCCCCCC[N+](C)(C)CC(=O)NCCCCCCCCCC.[Br-].[Br-] = 50 µg/mL
